# Target system: T1, ΔNp63β (Homo sapiens, UniProt Q9H3D4-4 1-461)
# T1 sequence: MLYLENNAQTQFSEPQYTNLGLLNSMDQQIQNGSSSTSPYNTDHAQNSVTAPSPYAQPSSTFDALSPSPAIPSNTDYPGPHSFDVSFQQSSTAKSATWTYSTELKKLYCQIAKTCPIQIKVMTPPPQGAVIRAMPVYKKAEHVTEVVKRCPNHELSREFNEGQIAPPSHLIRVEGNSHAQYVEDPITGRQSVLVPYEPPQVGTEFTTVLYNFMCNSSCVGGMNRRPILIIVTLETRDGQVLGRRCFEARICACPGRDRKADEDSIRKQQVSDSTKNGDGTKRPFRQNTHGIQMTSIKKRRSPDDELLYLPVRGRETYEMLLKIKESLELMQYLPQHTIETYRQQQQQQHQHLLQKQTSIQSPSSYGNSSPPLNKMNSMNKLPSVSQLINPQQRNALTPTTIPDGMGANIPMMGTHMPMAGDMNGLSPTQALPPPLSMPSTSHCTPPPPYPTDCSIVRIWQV
# Protocol details: fluorescence anisotropy competition titration; 25 mM sodium phosphate (purification buffer pH 7.2), 225 mM NaCl, 10% v/v glycerol, 5 mM DTT, 0.2 mg/mL BSA, 22 C
# Test context: protein: recombinant; tags: N-terminal 6xHis-lipoyl-TEV tag, cleaved; chain copies: 4

- Binder: "Ref competitor (dsDNA) DNA 1: CGCGGACATGTCCGGACATGTCCCGC DNA 2: GCGGGACATGTCCGGACATGTCCGCG"
  Kd [nM]: 35.5

Measured values drawn from paper PMC2807882 for this set.
